# Test system: Acinetobacter baumannii ATCC17961
# Procedure Details: Antimicrobial susceptibility testing: 90% growth inhibitory concentration (IC90) determination in Iso-Sensitest broth, OD600 growth
# Type: cell-based
# Study Conditions: strain ATCC 17961, OD600 growth over 16 h, read-out: A. baumannii ATCC 17961 IC90
# Protocol: Antimicrobial Susceptibility Testing: 90% Growth Inhibitory Concentration (IC90) Determination The in vitro antimicrobial activity of the compounds was determined according to the following procedure: The assay used a 10-points Iso-Sensitest broth medium to measure quantitatively the in vitro activity of the compounds against Acinetobacter baumannii ATCC17961 or ATCC17968. […]
Property Name: IC90

C#CCNCCCNC(=O)c1c(C)cc(Nc2nccn3c(-c4cn(CC=C)nc4C(F)(F)F)cnc23)cc1F = 0.379 µM
C#CCNCCCNC(=O)c1c(C)cc(Nc2nccn3c(-c4cn(CC(F)F)nc4C(F)(F)F)cnc23)cc1F = 0.43 µM
C#CCn1cc(-c2cnc3c(Nc4ccc(C(=O)N[C@H](C)CNC(=O)OC(C)(C)C)c(CC)c4)nccn23)c(C(F)(F)F)n1 = 0.659 µM
NC1CC(NC(=O)N2CCN(C(=O)c3ccc(Nc4nccn5c(-c6c[nH]nc6C(F)(F)F)cnc45)cc3Cl)CC2)C1 (stereo not shown) [Example 289] = 0.234 µM
C=CCn1cc(-c2cnc3c(Nc4ccc(C(=O)N[C@H](C)CNC(=O)OC(C)(C)C)c(CC)c4)nccn23)c(C(F)(F)F)n1 = 1.06 µM
CCc1cc(Nc2nccn3c(-c4c(C(F)(F)F)n[nH]c4C)cnc23)ccc1C(=O)NCCOCCN = 0.523 µM
CCc1cc(Nc2nccn3c(-c4cn(CCC(F)(F)F)nc4C(F)(F)F)cnc23)ccc1C(=O)NCCOCCN = 0.19 µM
